Biological target: CD137 on Jurkat reporter cells (Promega kit CS196005) (UniProt Q07011 24-255, limits assumed)
Sequence (Q07011 24-255 limits assumed): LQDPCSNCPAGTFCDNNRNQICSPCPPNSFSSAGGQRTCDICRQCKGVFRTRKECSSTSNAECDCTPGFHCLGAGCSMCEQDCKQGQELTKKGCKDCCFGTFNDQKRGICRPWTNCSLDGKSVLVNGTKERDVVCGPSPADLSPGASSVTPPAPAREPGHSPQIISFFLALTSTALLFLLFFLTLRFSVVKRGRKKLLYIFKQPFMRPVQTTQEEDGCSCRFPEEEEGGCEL
Test: cell-based or functional assay
Starred links: 1 amine or outer side, 2 acyl side, 3 side chain; linkers in the order of their positions; H or OH if unused. Positions of bridges follow the written chain, without caps; N, C: chain ends. Non-standard residues stand in square brackets, D forms with d. Chains are numbered I, II in the order given. No end group written: not given here. *: point of attachment. dLys(PYA) = D-lysine Nε-acylated with 4-pentynoic acid, clicked (triazole) to the linker azide, O=C(CCc1cn([*:3])nn1)NCCCC[C@@H](N[*:1])C(=O)[*:2]; TATA = O=C(CC[*:1])N1CN(C(=O)CC[*:2])CN(C(=O)CC[*:3])C1; 1Nal = N[C@@H](Cc1cccc2ccccc12)C(=O)O; Hyp = O=C(O)[C@@H]1C[C@@H](O)CN1; hArg = N=C(N)NCCCC[C@H](N)C(=O)O; tBuAla = CC(C)(C)C[C@H](N)C(=O)O; Cysteamide = C(CS[*:3])N[*:1]; Nle = CCCC[C@H](N)C(=O)O; Pent4ynoyl = C#CCCC(=O)*; Mpa = O=C(O)CCS
If the reported Fold improvement in Emax over BCY10000 on same plate, NCI-H292 equals or exceeds 3 fold, assign criterion met. If not, assign criterion not met.

Please review the following examples before continuing.
BINDER	LABEL
BCY11385 (not fully specified; BCY11014: Ac-(SEQ ID NO: 6)-Dap(PYA); TATA; linker at C-term Dap(PYA); BCY8116: SEQ ID NO: 1; TATA; linker at N-terminus) peptide 1: CPXDCMXDWSTPXWC peptide 2: CXPEAPYCFADPYXCX	criterion not met
BCY12485 (not fully specified; BCY12149: Ac-(SEQ ID NO: 63); TATA; linker at dLys(PYA)4; BCY8116: SEQ ID NO: 1; TATA; linker at N-terminus) peptide 1: CPXDCMXDWSTPXWC peptide 2: CXPEXPYCFADPYXC	criterion not met
BCY12588 (linker I:1-I:5-I:15, II:1-II:8-II:15 via TATA; not fully specified (some residues); also: chain 2 present twice on linker, Nectin-4:CD137 1:2, linker at chain B 5 to a chain's N-terminus via N-(acid-PEG3)-N-bis(PEG3-azide)) peptide 1: CP[1Nal]DCM[hArg]DWSTP[Hyp]WC peptide 2: [Mpa][tBuAla]PE[dK](Pent4ynoyl)PYCFADPY[Nle][Cysteamide]	criterion met
BCY12590 (linker I:1-I:5-I:15, II:1-II:8-II:15 via TATA; not fully specified (some residues, bridges); also: chains joined via N-(acid-PEG3)-N-bis(PEG3-azide) linker, triazole at dLys(PYA)) peptide 1: CP[1Nal]ECM[hArg]EWSTP[Hyp]WC peptide 2: Ac-C[tBuAla]PE[dK](Pent4ynoyl)PYCFADPY[Nle]CA	criterion not met
BCY12486 (not fully specified; BCY12147: Ac-(SEQ ID NO: 65); TATA; linker at dLys(PYA)4; BCY8116: SEQ ID NO: 1; TATA; linker at N-terminus) peptide 1: CPXDCMXDWSTPXWC peptide 2: CXPEXPYCFANPYXC	criterion not met
BCY12484 (not fully specified; BCY12143: Ac-(SEQ ID NO: 64); TATA; linker at dLys(PYA)4; BCY8116: SEQ ID NO: 1; TATA; linker at N-terminus) peptide 1: CPXDCMXDWSTPXWC peptide 2: CXEEXPYCFADPYXC	criterion not met
BCY12587 (linker I:1-I:5-I:15, II:1-II:8-II:15 via TATA; not fully specified (some residues); also: chain 2 present twice on linker, Nectin-4:CD137 1:2, linker at chain B 5 to a chain's N-terminus via N-(acid-PEG3)-N-bis(PEG3-azide)) peptide 1: CP[1Nal]DCM[hArg]DWSTP[Hyp]WC peptide 2: [Mpa][tBuAla]PE[dK](Pent4ynoyl)PYCFADPY[Nle]C	criterion not met
BCY12586 (not fully specified; BCY12352: Ac-(SEQ ID NO: 69), [Cysam] third reactive group; TATA; linker at dLys(PYA)4; BCY8116: SEQ ID NO: 1; TATA; linker at N-terminus) peptide 1: CPXDCMXDWSTPXWC peptide 2: CXPEXPYCFADPYXX	criterion met
BCY11021 (not fully specified; BCY7744: Ac-A-(SEQ ID NO: 12)-A; TATA; linker at dLys(PYA)4; BCY11016: [PYA]-[B-Ala]-(SEQ ID NO: 1); TATA; linker at N-term PYA) peptide 1: CPXDCMXDWSTPXWC peptide 2: ACIEEXQYCFADPYXCA	criterion met

Could you now consider this next binder?
Query block: Assess whether reported Fold improvement in Emax over BCY10000 on same plate, NCI-H292 for heterotandem bicyclic peptide complex BCY11863 (linker I:1-I:5-I:15, II:1-II:8-II:15 via TATA; not fully specified (bridges); also: 1:2 complex: BCY8116 + 2x BCY8928, also called Nectin-4/CD137 heterotandem) peptide 1: CP[1Nal][dD]CM[hArg]DWSTP[Hyp]WC peptide 2: Ac-C[tBuAla]PE[dLys(PYA)]PYCFADPY[Nle]CA sits at 3 fold or higher.
Result block: criterion not met

Each recorded value in this set is attributed to patent US20230129258A1.
